# System: L1210
# Method description: In vitro for cytotoxicity against murine leukemia cells (L1210)
# Type: functional, cell-based
# Assay conditions: Mus musculus
Measured metric: pIC50
# pIC50: negative log10 of molar concentration; output just the value

[in] Please look up its pIC50: CNC(=O)c1cccc2c(Nc3ccc(NS(C)(=O)=O)cc3NC)c3cccc(OC)c3nc12
[out] 6.49

[in] Please look up its pIC50: CNc1cc(NS(C)(=O)=O)ccc1Nc1c2cccc(OC)c2nc2c(OC)cccc12
[out] 6.89

[in] Please look up its pIC50: CNC(=O)c1cccc2c(Nc3ccc(NS(C)(=O)=O)cc3NC)c3ccc(Cl)cc3nc12
[out] 6.96

[in] Please look up its pIC50: CNc1cc(NS(C)(=O)=O)ccc1Nc1c2ccccc2nc2cc(Cl)ccc12
[out] 7.62

###

Exercise: for every item that follows, state its recorded OD.
# Tested on: P388
# Method description: In vivo for antitumor activity against P388 leukemia.
# Format: functional, Mus musculus
Report the figure in mg/kg without appending any unit label.

[in] Please look up its OD: CNc1cc(NS(C)(=O)=O)ccc1Nc1c2ccc(Br)cc2nc2c(C)cccc12
[out] 13.3

[in] Please look up its OD: CNC(=O)c1ccc2c(Nc3ccc(NS(C)(=O)=O)cc3NC)c3ccccc3nc2c1
[out] 65

[in] Please look up its OD: CNc1cc(NS(C)(=O)=O)ccc1Nc1c2ccccc2nc2c1ccc1ccccc12
[out] 45

[in] Please look up its OD: CNc1cc(NS(C)(=O)=O)ccc1Nc1c2ccc(Cl)cc2nc2c(C)cccc12
[out] 13.3

[in] Please look up its OD: CNC(=O)c1cccc2c(Nc3ccc(NS(C)(=O)=O)cc3NC)c3cccc(OC)c3nc12
[out] 65

[in] Please look up its OD: CNc1cc(NS(C)(=O)=O)ccc1Nc1c2ccccc2nc2cc(Cl)ccc12
[out] 30

[in] Please look up its OD: CNc1cc(NS(C)(=O)=O)ccc1Nc1c2ccccc2nc2cc(F)ccc12
[out] 45

[in] Please look up its OD: CNc1cc(NS(C)(=O)=O)ccc1Nc1c2cccc(OC)c2nc2c(OC)cccc12
[out] 150

[in] Please look up its OD: CNc1cc(NS(C)(=O)=O)ccc1Nc1c2ccccc2nc2cc(C)ccc12
[out] 8.9

[in] Please look up its OD: CNc1cc(NS(C)(=O)=O)ccc1Nc1c2ccccc2nc2cc(I)ccc12
[out] 45

[in] Please look up its OD: CNc1cc(NS(C)(=O)=O)ccc1Nc1c2ccccc2nc2c(C)ccc(C)c12
[out] 65

###

# Tested on: L1210
# Method description: In vitro for cytotoxicity against murine leukemia cells (L1210)
# Assay type: functional, cell-based
# Assay conditions: Mus musculus
Measured metric: pIC50
# pIC50: negative log10 of molar concentration; output just the value

[in] Look up pIC50 with L1210 for this molecule: CNc1cc(NS(C)(=O)=O)ccc1Nc1c2cccc(C)c2nc2c(C)cccc12
[out] 7.04

[in] Look up pIC50 with L1210 for this molecule: CNc1cc(NS(C)(=O)=O)ccc1Nc1c2ccc(OC)cc2nc2c(C)cccc12
[out] 7.80

[in] Look up pIC50 with L1210 for this molecule: CNc1cc(NS(C)(=O)=O)ccc1Nc1c2ccc(Cl)cc2nc2c(C)cccc12
[out] 7.82

[in] Look up pIC50 with L1210 for this molecule: CNc1cc(NS(C)(=O)=O)ccc1Nc1c2ccc(C)cc2nc2c(OC)cccc12
[out] 7.19
